Data credit: patent US20140371165A1

Listing of entries alongside the reported IC50.
- System: SW480TR
- assay_protocol: MTT cytotoxicity assay and reversal of MDR in SW480TR
- Assay type: cell-based, human
- run_conditions: Homo sapiens, 144 h, without NSC23925b, MTT, 6 days, read-out: IC50 of chemotherapy drug alone
Just so you know, I need the unit written after the number.

compound | value_reported
CC(=O)O[C@H]1C(=O)[C@@]2(C)[C@H]([C@H](OC(=O)c3ccccc3)[C@]3(O)C[C@H](OC(=O)[C@H](O)[C@@H](NC(=O)c4ccccc4)c4ccccc4)C(C)=C1C3(C)C)[C@]1(OC(C)=O)CO[C@@H]1C[C@@H]2O [Paclitaxel, reference compound] | 120 nM

Return IC50 measured with SW480TR given this compound: O=C1c2c(O)ccc(O)c2C(=O)c2c(NCCNCCO)ccc(NCCNCCO)c21 [Mitoxantrane, reference compound] 270 nM

Here is the next compound: COc1cccc2c1C(=O)c1c(O)c3c(c(O)c1C2=O)C[C@@](O)(C(=O)CO)C[C@@H]3O[C@H]1C[C@H](N)[C@H](O)[C@H](C)O1 [Doxorubicin, reference compound] 840 nM
